- study system: LRRK2(G2019S mutation, GST-LRRK2(amino acids 970-2527)) (Homo sapiens, UniProt Q5S007, G2019S)
- Construct: GST-LRRK2(amino acids 970-2527); GST (N); purchased Life Technologies Corporation
- Sequence (Q5S007 970-2527 G2019S): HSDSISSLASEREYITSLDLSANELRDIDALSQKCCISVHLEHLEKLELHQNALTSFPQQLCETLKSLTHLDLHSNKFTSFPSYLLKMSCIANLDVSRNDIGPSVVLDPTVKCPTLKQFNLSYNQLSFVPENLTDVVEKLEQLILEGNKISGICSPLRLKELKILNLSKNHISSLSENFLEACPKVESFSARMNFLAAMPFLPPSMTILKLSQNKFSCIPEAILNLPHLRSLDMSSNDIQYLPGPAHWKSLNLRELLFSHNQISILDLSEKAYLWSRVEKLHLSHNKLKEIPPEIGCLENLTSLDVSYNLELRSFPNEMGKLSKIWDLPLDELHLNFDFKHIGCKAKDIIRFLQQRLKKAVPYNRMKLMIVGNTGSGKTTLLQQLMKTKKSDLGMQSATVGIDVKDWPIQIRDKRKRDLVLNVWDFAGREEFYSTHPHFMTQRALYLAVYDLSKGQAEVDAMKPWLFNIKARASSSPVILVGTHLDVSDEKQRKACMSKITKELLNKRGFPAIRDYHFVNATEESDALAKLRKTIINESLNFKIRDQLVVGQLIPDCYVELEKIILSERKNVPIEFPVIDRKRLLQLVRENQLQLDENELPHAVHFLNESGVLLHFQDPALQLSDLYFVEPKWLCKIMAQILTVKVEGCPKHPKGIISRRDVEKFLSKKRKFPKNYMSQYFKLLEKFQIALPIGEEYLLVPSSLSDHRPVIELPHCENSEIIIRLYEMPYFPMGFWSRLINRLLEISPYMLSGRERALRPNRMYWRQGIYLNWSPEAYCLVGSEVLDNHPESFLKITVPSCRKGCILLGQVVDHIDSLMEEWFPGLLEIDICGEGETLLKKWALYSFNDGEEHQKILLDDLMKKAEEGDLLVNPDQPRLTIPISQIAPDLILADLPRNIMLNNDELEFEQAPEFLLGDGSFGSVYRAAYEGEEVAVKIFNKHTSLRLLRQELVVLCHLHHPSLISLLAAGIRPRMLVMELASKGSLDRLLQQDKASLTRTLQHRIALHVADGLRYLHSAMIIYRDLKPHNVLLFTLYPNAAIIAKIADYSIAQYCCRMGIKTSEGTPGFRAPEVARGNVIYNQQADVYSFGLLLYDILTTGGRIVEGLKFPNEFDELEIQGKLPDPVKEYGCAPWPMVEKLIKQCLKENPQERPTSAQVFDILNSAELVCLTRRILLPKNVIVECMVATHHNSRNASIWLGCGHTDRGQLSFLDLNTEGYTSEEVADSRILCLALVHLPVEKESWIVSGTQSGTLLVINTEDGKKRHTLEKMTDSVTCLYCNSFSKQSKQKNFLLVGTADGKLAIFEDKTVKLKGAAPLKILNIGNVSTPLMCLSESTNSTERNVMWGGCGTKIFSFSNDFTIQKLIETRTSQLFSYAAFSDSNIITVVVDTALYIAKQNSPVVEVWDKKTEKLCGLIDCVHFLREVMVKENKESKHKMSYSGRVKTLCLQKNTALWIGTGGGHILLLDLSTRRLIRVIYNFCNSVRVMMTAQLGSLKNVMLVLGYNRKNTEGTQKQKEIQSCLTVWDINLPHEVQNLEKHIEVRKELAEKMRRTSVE
- run description: LRRK2 Km ATP LanthaScreen Assay
- Type: biochemical
- details: Km ATP LanthaScreen; mean IC50 of several tests; read-out: LRRK2 IC50
# pIC50 annotations
In simple prose, pIC50 is minus the logarithm base ten of a concentration in moles per litre.

Illustrative cases are given below, each with its answer.
{"columns": ["compound", "data value"],
 "data": [
  ["Cn1cc(-c2cc3c(-c4ccnc(N5CC(F)C5)c4)n[nH]c3cc2F)cn1 [Ex 353]", 8.34],
  ["Cn1cc(-c2ccc3[nH]nc(-c4ccnc(N5CCC(F)(F)CC5)c4)c3c2)cn1 [Example 273]", 8.52],
  ["CCOc1ccc2[nH]nc(-c3ccnc(N4CCN(C)CC4)c3)c2c1 [Example 362]", 8.00],
  ["c1ccc(-c2ccc3[nH]nc(-c4ccnc(N5CCOCC5)c4)c3c2)nc1 [Example 99]", 7.86]
]}

Exam item: Sample Cc1nn(C)cc1-c1ccc2[nH]nc(-c3ccnc(N4CCOCC4)c3)c2c1 [Example 318] — what was its pIC50?
Marked response: 7.77

Exam item: Follow-up item: OCCc1cc2c(-c3ccnc(N4CCOCC4)c3)n[nH]c2cc1F [Example 349]
Marked response: 7.57

Exam item: Follow-up item: c1cncc(-c2ccc3[nH]nc(-c4ccnc(N5CCOCC5)c4)c3c2)c1 [Example 98]
Marked response: 8.47

Exam item: Follow-up item: CC(C)Oc1ccc2[nH]nc(-c3ccnc(N4CCN(CCO)CC4)c3)c2c1 [Example 299]
Marked response: 8.70

Exam item: Follow-up item: c1cc(-c2n[nH]c3ccc(-c4ncco4)cc23)cc(N2CCOCC2)n1 [Example 325]
Marked response: 8.16

Data credit: patent US9440952B2
